Test: Human HepG2 cell viability assay in 384 well format
Assay type: toxicity, cell-based
Design: dose 125 nL, time 70.5 hour; concentration not given beside the values
Conditions: HepG2 cells, read-out: Inhibition
Listing of recorded cytotoxicity at 70.5 h by entry.
experimental readout: cytotoxicity at 70.5 h (%)

INSERT INTO results (compound, number) VALUES
  ('Clc1cccc(CNC2CCN(CCc3ccncc3)CC2)c1', 0.526),
  ('COc1ccc(CN2Cc3[nH]nc(C(=O)N(C)C)c3C2)cc1', -11.8),
  ('Cc1csc(CN(C)C(=O)Nc2cnn(CC3CCCO3)c2)n1 (configuration not stated)', -12.7),
  ('O=C(CCc1cc2n(n1)CCCNC2)NCCCSC1CCCCC1', -8.87),
  ('CCN(CC)C(CNC(=O)c1ccnc(N(C)C)c1)c1ccsc1 (configuration not stated)', -5.28),
  ('Cc1cc(C)c(CNC(=O)NCc2ccc(F)cc2)c(=O)[nH]1', -3.16),
  ('CC(=O)N1CCOC(c2cncc(CCC(N)=O)n2)C1 (configuration not stated)', 7.13),
  ('CCc1ccccc1CN1CCN(Cc2ncc[nH]2)[C@H]2CS(=O)(=O)C[C@H]21', -3.46),
  ('CCC(=O)N1CCN(Cc2cc(-c3ccncc3)nn2C)CC1', 5.2),
  ('COCCNC(=O)N1CCCCC1CNC(=O)Nc1ccccc1 (configuration not stated)', -3.88),
  ('Cc1ccccc1CN1CCN(Cc2nccn2C)CC1', -8.12),
  ('CN1CC2(CCN(C(=O)COc3ccc(Cl)cc3Cl)CC2)OC1=O', 14.5),
  ('CN1C(Cn2cccn2)C[C@@H]2CN(Cc3cnn(C)c3)CC[C@@H]21 (some centres not stated)', -11.7),
  ('COc1nc(C)c(C(=O)N2CCC(C(O)Cc3ccccc3)CC2)s1 (configuration not stated)', -11.5),
  ('Cn1cccc1C(=O)NCc1cn2c(n1)CN(S(=O)(=O)C1CC1)CC2', -10.3),
  ('Cc1nc2c(c(Nc3ccccn3)n1)CN(S(C)(=O)=O)CC2', 23.4),
  ('CCc1nc(C2CCCN2C(=O)CCCn2cncn2)no1 (configuration not stated)', -8.49);

---

Experiment: Human HepG2 cell viability assay in 384 well format
Type: toxicity, cell-based
Set-up: dose 125 nL, time 70.5 hour; concentration not given beside the values
Details: HepG2 cells, read-out: Inhibition
experimental readout: cytotoxicity at 70.5 h (%)

INSERT INTO assay_data (molecule, number) VALUES
  ('CNc1ncc2c(n1)CN(CCc1ccc(C)cc1)C2=O', -3.63),
  ('CN1CCc2nc(C3CCCN(C(=O)CC(C)(C)C)C3)ncc2C1 (stereo unspecified)', -6.36),
  ('Fc1cccc(Oc2nccnc2C2CCN(C3CCOCC3)CC2)c1', 0.625),
  ('Cc1ccc(CNCC2Cn3nnc(-c4cccc(F)c4)c3CO2)o1 (stereo unspecified)', -2),
  ('Cc1ccc(CC(=O)N2C[C@@H](CN(C)C)[C@@H](CO)C2)cc1C', -2.62),
  ('CC(C)C(=O)N1CCc2nc(C(=O)Nc3cccnc3)sc2CC1', -2.65),
  ('O=C(Nc1ccnn1Cc1ccccc1Cl)C1CCS(=O)(=O)C1 (stereo unspecified)', -17),
  ('CSCc1nc(C(C)(C)NC(=O)OC(C)(C)C)no1', -7.03),
  ('COCC(=O)N1CCC2(CCCN(Cc3ccc(Cl)cc3)CC2)CC1', 44.6),
  ('Cn1ccc(C(=O)NC2CCC23CCN(C(=O)c2ccccn2)CC3)c1 (stereo unspecified)', -4.01),
  ('CC(C)(C)C(=O)NCCC(=O)Nc1cc(C#N)cn1C(C)(C)C', -4.11),
  ('CC(C)n1nc(CN2CCCC2)c2c1CN(CC1CC1)CC2', -1.54),
  ('CC(C)NC(=O)C(C)NC(=O)N1CCN(c2ccc(Cl)cc2)CC1 (stereo unspecified)', 19),
  ('CC(NS(N)(=O)=O)c1ccc(OCc2ccc(F)cc2)cc1 (stereo unspecified)', -0.493),
  ('c1cncc(NCCNC2CCSCC2)c1', -2.74),
  ('CN(C)CCN1CCO[C@H]2CN(Cc3ccccn3)C[C@H]21', -6);

---

Listing of recorded cytotoxicity at 70.5 h by entry.
Assay: Human HepG2 cell viability assay in 384 well format
Type: toxicity, cell-based
Design: dose 125 nL, time 70.5 hour; concentration not given beside the values
Details: HepG2 cells, read-out: Inhibition
experimental readout: cytotoxicity at 70.5 h (%)

INSERT INTO results (compound, unit_tag, number) VALUES
  ('CCc1cc(C(=O)N2CC[C@@H](c3ccc4ccccc4c3)[C@H](O)C2)[nH]n1', '%', 35),
  ('CCC1CCCCN1S(=O)(=O)c1c(C)noc1C (configuration not stated)', '%', -7.69),
  ('CNc1cncc(C2CCCN2C(=O)Cn2c(=O)oc3ccccc32)n1 (configuration not stated)', '%', -5.11),
  ('Cc1ccoc1-c1nnc(CNCC2CCCN2c2cccnn2)o1 (configuration not stated)', '%', -4.49),
  ('COc1ccc(CNC(=O)c2ccc(Cl)cc2F)cc1C(=O)O', '%', -4.39),
  ('CN(C)C(C(=O)N1CC(c2ccccn2)C1)c1cccc(F)c1 (configuration not stated)', '%', -2.09),
  ('O=C(NCC1(O)CCC1)c1cccc(-n2cccn2)c1', '%', -11.6),
  ('CC(C)(C)OC(=O)NC1CCCN(Cc2cccs2)C1 (configuration not stated)', '%', 6.34),
  ('O=C(NCC1(CO)CC1)NC(c1nccs1)C1CC1 (configuration not stated)', '%', -3.86),
  ('O=C1COC2(COCCN(Cc3cccnc3)C2)CN1c1ccoc1 (configuration not stated)', '%', -9.07),
  ('CCC(NC(=O)NCc1nncn1CC)c1ccc(OC)cc1 (configuration not stated)', '%', -9.27),
  ('COCCN(C)C[C@@H]1CN(C(=O)c2ccc(SC)cc2)C[C@@H]1CO', '%', 12.6),
  ('CC(=O)Nc1ccc(C(=O)N(C)Cc2ccc(F)cc2F)s1', '%', -61.6),
  ('CCN(C(=O)Cc1ccc(NC(=O)NC2CC2)cc1)c1ccccc1', '%', -3.6),
  ('O=C(c1cncc(Br)c1)N1CCC(O)(Cn2ccc3ccncc32)CC1', '%', -13.2),
  ('CNC(=O)c1cc(NC(=O)Nc2cnn(CC(C)C)c2)ccc1F', '%', -4.7),
  ('N#Cc1cccnc1N1CCC(c2nc(C(F)(F)F)c[nH]2)CC1', '%', -15.7),
  ('COc1ccc(Cn2ccnc2)cc1F', '%', -10.7),
  ('CCOc1ccc(CN2CCC(c3[nH]ncc3C)C2)cc1CO (configuration not stated)', '%', -7.99),
  ('Cn1ccnc1CN1CCN(Cc2ccncc2)[C@@H]2CS(=O)(=O)C[C@@H]21', '%', -13.6),
  ('Cn1cc(N2C(=O)CC[C@@H]3[C@H]2CCN3Cc2cccc(C#N)c2)cn1', '%', -13.2),
  ('Cc1ncsc1CN1CC[C@](C)(O)[C@@H](Oc2cccc(F)c2)C1', '%', -3.09),
  ('Cc1cnc(CNC(=O)CCCn2cnc3ccccc3c2=O)cn1', '%', 6.51),
  ('Cc1c[nH]c(CN(C)c2nc(C3CCCC3)nc3c2cnn3C)n1', '%', -2.19),
  ('O=S(=O)(Cc1ccc(F)c(Cl)c1)NC(CO)c1ccco1 (configuration not stated)', '%', -11),
  ('Cc1cnc(N2CCO[C@@H]3CC(COCc4cccnc4)C[C@H]32)nc1 (some centres not stated)', '%', -0.9),
  ('CN(C)C1CCN(C(=O)c2cccc(S(=O)(=O)NCC3(C)COC3)c2)C1 (configuration not stated)', '%', -9.11),
  ('CN(CCc1ccccn1)C1CCCN(Cc2noc(C3CC3)n2)C1 (configuration not stated)', '%', -4.84),
  ('Cc1cnn(CC2CCCN2C(=O)c2cc(C)no2)c1 (configuration not stated)', '%', 25.6),
  ('C[C@@H]1CN(C2(C(=O)N3CCSCC3)Cc3ccccc3C2)C[C@H](C)O1', '%', 2.94),
  ('COCC(=O)N1CCC2(CC1)NC(=O)c1ccccc12', '%', 31.8),
  ('Cc1nc(C)c(C(=O)NCCNC(=O)Cc2cccc(F)c2)s1', '%', -9.52);

---

Assay: Human HepG2 cell viability assay in 384 well format
Format: toxicity, cell-based
Parameters: dose 125 nL, time 70.5 hour; concentration not given beside the values
Conditions: HepG2 cells, read-out: Inhibition
experimental readout: cytotoxicity at 70.5 h

INSERT INTO assay_data (compound, result) VALUES
  ('CN(Cc1ccc2c(c1)OCO2)C(=O)c1ccc(=O)n(C)c1', '-1.05%'),
  ('CCc1[nH]c2c(CNC(=O)C3CNC(=O)C3)cc(C)cc2c1C (stereo unspecified)', '-11.3%'),
  ('O=C(c1cccs1)N1CCc2ncnc(C3CCOC3)c2CC1 (stereo unspecified)', '-14.6%'),
  ('CCCN(CC(=O)N1CCNCC1)C(=O)c1cccc(Cl)c1', '-15.8%'),
  ('Cc1nccn1-c1ccc(=O)n(CCNC(=O)c2ccccn2)n1', '-6.46%'),
  ('O=C(c1ccc2c(c1)CCCC2)N1CCn2ncnc2C1', '2.9%'),
  ('COCC(=O)N1CCN(Cc2cc(-c3ccncc3)nn2C)CC1', '-3.57%'),
  ('CC(C)(CCS(C)(=O)=O)CNc1ccc2ccc(F)cc2n1', '-2.27%'),
  ('O=C(c1cc(C2CC2)[nH]n1)N1CCCC(n2cncn2)C1 (stereo unspecified)', '-0.297%'),
  ('COc1ccc(C(=O)NC2COc3ccccc3C2)cc1OCC(=O)O (stereo unspecified)', '-4.51%'),
  ('Cc1[nH]/c(=N/C(=O)Cn2nc(N3CCOCC3)ccc2=O)sc1C', '-6.43%'),
  ('Cc1cccc(N(CCC(N)=O)CC(=O)Nc2cc(Cl)ccc2Cl)c1', '-5.69%'),
  ('Cc1ccc2cc(CN(C)Cc3nccs3)c(=O)[nH]c2c1', '-11.3%'),
  ('Cc1noc(C2CCN(Cc3cc(=O)n(C)c(=O)n3C)CC2)n1', '-13.2%'),
  ('O=C(O)CC(CC(=O)N(Cc1ccsc1)C1CC1)c1cccs1 (stereo unspecified)', '20.8%'),
  ('CCCNC(=O)c1cc(Br)c2c(c1)OCCO2', '-9.42%'),
  ('COc1ccc(-c2noc(C(N)CCSC)n2)cc1 (stereo unspecified)', '23.9%'),
  ('CS(=O)(=O)NC(=O)c1cnc2c(cnn2C2CCCC2)c1', '-4.29%'),
  ('COC1CCN(c2ccc(F)cc2CN(C)CC(N)=O)CC1', '-4.87%'),
  ('O=C(CCn1nnc2ccccc2c1=O)N(CC1CCOC1)C1CC1 (stereo unspecified)', '1.53%'),
  ('COc1cccc(C2CC(=O)Nc3nc(N4CCCCC4)sc32)c1OC (stereo unspecified)', '-6.7%');
